The reported numbers originate from patent US8304577B2.

Attribute: pEC50
biological target: G protein-coupled receptor 88 (GPR88) (Homo sapiens, UniProt Q9GZN0); experiment: GPR88 functional assay: EC50 of Table 2 (GTPγS assay and cAMP HTRF assay described; table does not say which); format: cell-based; conditions: exact value given; read-out: Range (EC50)
Sequence (Q9GZN0 whole entry, species assumed): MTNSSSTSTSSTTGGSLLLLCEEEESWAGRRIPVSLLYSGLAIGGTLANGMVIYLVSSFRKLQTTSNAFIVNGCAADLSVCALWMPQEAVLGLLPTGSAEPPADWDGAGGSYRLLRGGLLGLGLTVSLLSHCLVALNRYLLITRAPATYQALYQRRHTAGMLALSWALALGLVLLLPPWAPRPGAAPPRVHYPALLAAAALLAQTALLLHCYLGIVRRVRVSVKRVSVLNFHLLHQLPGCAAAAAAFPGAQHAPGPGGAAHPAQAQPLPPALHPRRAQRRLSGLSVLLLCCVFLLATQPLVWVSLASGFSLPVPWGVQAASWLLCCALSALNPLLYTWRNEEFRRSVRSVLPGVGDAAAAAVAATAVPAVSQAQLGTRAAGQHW
pEC50 here: minus log base 10 of the concentration, concentration in moles per litre.

Solved entries (count: 2):
CCCC(C)COc1ccc([C@H](CNC[C@H]2CCCN2)NC(=O)[C@@H](C)c2ccccc2)cc1 (stereo partly drawn) [Example 18]
6.81
CCCC(C)COc1ccc([C@H](CNCc2ccccn2)NC(=O)[C@@H](C)c2ccccc2)cc1 (stereo partly drawn) [Example 10]
6.96

Task item: Recorded pEC50 for CCCC(C)COc1ccc([C@H](CNC(=O)[C@@H]2CCCN2)NC(=O)[C@@H](C)c2ccccc2)cc1 (stereo partly drawn) [Example 21] with G protein-coupled receptor 88 (GPR88) (Homo sapiens, UniProt Q9GZN0), please?
Reply: 7.05

Task item: Query for G protein-coupled receptor 88 (GPR88) (Homo sapiens, UniProt Q9GZN0): what pEC50 does the record show for CCCC(C)COc1ccc([C@H](CN)NC(=O)[C@@H](C)c2ccccc2)cc1 (stereo partly drawn) [Example 5] ?
Reply: 7.27

Task item: G protein-coupled receptor 88 (GPR88) (Homo sapiens, UniProt Q9GZN0) / pEC50 / CC(C)COc1ccc([C@@H](NC(=O)[C@@H](C)c2ccccc2)[C@H]2CCCN2)cc1 [Example 40] : value?
Reply: 6.60

Task item: Notebook entry, G protein-coupled receptor 88 (GPR88) (Homo sapiens, UniProt Q9GZN0) assay: pEC50 of CCCC(C)COc1ccc([C@H](CNC[C@@H]2CCCN2)NC(=O)[C@@H](C)c2ccccc2)cc1 (stereo partly drawn) [Example 16] = ?
Reply: 7.00
